measurement_description: Solubility of the compound in pH 7.4 solution
Format: physicochemical
metric: solubility (µg/mL)

compound	metric	units_label	value
CC1(C)CCC(CN2CCN(c3ccc(C(=O)NS(=O)(=O)c4ccc(NCC5CCOCC5)c([N+](=O)[O-])c4)c(Oc4cnc5[nH]ccc5c4)c3)CC2)=C(c2ccc(Cl)cc2)C1 [VENETOCLAX]	solubility	µg/mL	0.4

* * *

measurement_description: Oral bioavailability in human
Format: ADME, organism-based
test_settings: in vivo
metric: bioavailability (%)

compound	value
Cc1nnc(C(C)C)n1C1C[C@@H]2CC[C@@H](C1)N2CC[C@H](NC(=O)C1CCC(F)(F)CC1)c1ccccc1 (stereo partly specified)	23
